assay: Biodistribution in BDL rats with and without excess cold compound; format: in vivo; conditions: male, Sprague Dawley, rat, carcass, iv, total radioactivity, BDL rats, 15 days post-op, 1 hour post-injection, 100-fold excess cold Compound 8; read-out: Activity in Carcass, Mean
Numbered stars: 1 amine (or outer) side, 2 acyl side, 3 side chain; on linkers, the order of the positions; unused ones are H or OH. Bridge positions count the residues as written; N and C are the ends. Side chains are listed from the residue outwards. Peptide text beside a SMILES is read from it. * marks the point of attachment. X1 = C/C(=N\O)C(C)(C)NCCC(CCNC(C)(C)/C(C)=N/O)CCN*; Glutaryl = O=C(CCCC(=O)[*:2])[*:1]; X2 = NC(=O)COCC(=O)NCCOCCOCCOCCN*
MEASURED_PARAMETER: tissue uptake dose at 1 h (%ID)
Give just the numeric value; %ID need not be written.

Entry C/C(=N\O)C(C)(C)NCCC(CCNC(=O)CCCC(=O)NCCCC[C@@H]1NC(=O)CSC[C@@H](C(=O)NCCOCCOCCOCCNC(=O)COCC(N)=O)NC(=O)[C@H](Cc2ccccc2)NC(=O)[C@@H]2CSSC[C@H](NC1=O)C(=O)N[C@@H](CCCNC(=N)N)C(=O)NCC(=O)N[C@@H](CC(=O)O)C(=O)N2)CCNC(C)(C)/C(C)=N/O (stereo partly shown) [Compound 8] ({CH2CO}-K([Glutaryl-X1])CRGDCFC-X2; disulfide 2-6; thioether N-8) ; tissue uptake dose at 1 h = 6.47
